SYSTEM_NAME: T1, recombinant mouse TfR-1, His-tagged (Sino Biological 50741-M07H) (mouse, UniProt Q62351 89-763)
T1 construct: bought; His-tagged; also called mTfR1; mTfR-1
METHOD: SPR, His-captured TfR1
Please go through the items and note down their kon.
Give bare numbers, in M⁻¹ s⁻¹.

Clone C VNAR-hFc fusion (Fc fusion, not shown: a dimerising Fc or GST, bivalent VNAR-Fc; also called Clone C-hFc) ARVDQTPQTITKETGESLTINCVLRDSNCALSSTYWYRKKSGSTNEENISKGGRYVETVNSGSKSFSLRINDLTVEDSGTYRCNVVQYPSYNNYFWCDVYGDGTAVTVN | 214000

For each of the items listed, what is its kon?
1. Clone C variant 20 VNAR-hFc (Fc fusion, not shown: a dimerising Fc or GST) ARVDQTPQTITKETGESLTINCVLRDSNCALSSTYWYRKKSGSTNEENISKGGRYVETVNSGSKSFSLRINDLTVEDSGTYRCNVVQYPSHNNYFWCDVYGDGTAVTVN
2. Clone C variant 15 VNAR-hFc (Fc fusion, not shown: a dimerising Fc or GST) ARVDQTPQTITKETGESLTINCVLRDSNCALSSTYWYRKKSGSTNEENISKGGRYVETVNSGSKSFSLRINDLTVEDSGTYRCNVVQYPQQPNYFWCDVYGDGTAVTVN
3. Clone C variant 7 VNAR-hFc (Fc fusion, not shown: a dimerising Fc or GST) ARVDQTPQTITKETGESLTINCVLRDSNCALSSTYWYRKKSGSTNEENISKGGRYVETVNSGSKSFSLRINDLTVEDSGTYRCNVVQWPSLSSPFWCDVYGDGTAVTVN

[50100, 279000, 119000]

These measurements were taken from patent US20210403591A1.
